target: FGFR1 (Homo sapiens, UniProt P11362); construct: made in house; host or cells: E. coli derived from BL21, infected with T7 phage; experiment: Kinase binding assay (kinase-tagged T7 phage, affinity beads, qPCR readout), FGFR1; conditions: FGFR binding data
Sequence (P11362 22-822): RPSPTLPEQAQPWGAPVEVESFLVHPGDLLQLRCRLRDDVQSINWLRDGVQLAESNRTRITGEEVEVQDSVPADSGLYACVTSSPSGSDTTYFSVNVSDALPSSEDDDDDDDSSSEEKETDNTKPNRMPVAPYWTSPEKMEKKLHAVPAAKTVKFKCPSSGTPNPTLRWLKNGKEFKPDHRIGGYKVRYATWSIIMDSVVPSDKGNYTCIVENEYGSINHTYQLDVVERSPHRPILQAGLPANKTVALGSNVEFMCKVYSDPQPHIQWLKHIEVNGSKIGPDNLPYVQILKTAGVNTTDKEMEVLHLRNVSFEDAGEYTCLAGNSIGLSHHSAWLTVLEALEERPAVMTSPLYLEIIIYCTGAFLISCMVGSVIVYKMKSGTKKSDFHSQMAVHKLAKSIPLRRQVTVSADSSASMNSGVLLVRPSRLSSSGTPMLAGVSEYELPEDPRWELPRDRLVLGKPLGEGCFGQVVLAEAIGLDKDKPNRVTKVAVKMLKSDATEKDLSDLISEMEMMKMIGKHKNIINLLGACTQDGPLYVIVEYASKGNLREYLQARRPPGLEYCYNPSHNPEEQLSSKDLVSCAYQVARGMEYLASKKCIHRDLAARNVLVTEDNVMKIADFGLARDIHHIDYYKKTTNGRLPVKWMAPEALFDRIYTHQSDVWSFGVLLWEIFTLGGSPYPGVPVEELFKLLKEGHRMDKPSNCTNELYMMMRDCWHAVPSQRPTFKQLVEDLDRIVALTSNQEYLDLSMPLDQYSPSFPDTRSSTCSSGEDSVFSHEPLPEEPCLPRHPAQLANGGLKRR
Answer each item with its documented Kd.

Solved entries:
C=CC(=O)Nc1cnc2c(c1)c(C)cn2-c1ccnc(Nc2ccnn2C)n1 [Example 83] | 0.1 to 100 nM
C=CC(=O)Nc1ccc2c(-c3ccnc(Nc4cnn(C5CCC5)c4)n3)cn(C)c2c1 [Example 189] | 0.1 to 100 nM
C=CC(=O)Nc1ccc2c(c1)c(C)cn2-c1nc(Nc2cn(CC)nc2C)ncc1F [Example 156] | 0.1 to 100 nM

// each listed molecule needs a value for Kd
1. C=CC(=O)Nc1cc2c(C)cn(-c3nc(Nc4ccc(N5CCOCC5)cc4)ncc3Cl)c2cc1C [Example 60]
2. C=CC(=O)Nc1ccc2c(-c3nc(Nc4cn(C)nc4C)ncc3F)cn(C)c2c1 [Example 154]
3. C=CC(=O)Nc1ccc2c(c1)c(C)cn2-c1nc(Nc2cnn(C[C@H](C)OC)c2)ncc1F [Example 205]
4. C=CC(=O)Nc1ccc2c(-c3nc(Nc4ccc(OC)c(OC)c4)ncc3Cl)cn(C)c2c1 [Example 31]
5. Cc1nn(C)cc1Nc1ncc(Cl)c(-n2cc(C)c3cc(NC(=O)/C=C/CN(C)C)cnc32)n1 [Example 180]
6. C=CC(=O)Nc1ccc2c(c1)c(C)cn2-c1ccnc(Nc2ccnn2C)n1 [Example 82]

Response:
> 1000 nM
250 to 1000 nM
0.1 to 100 nM
0.1 to 100 nM
100 to 250 nM
100 to 250 nM

====

biological target: FGFR1 (Homo sapiens, UniProt P11362); construct: made in house; host or cells: E. coli derived from BL21, infected with T7 phage; assay: Kinase binding assay (kinase-tagged T7 phage, affinity beads, qPCR readout), FGFR1; conditions: FGFR binding data
property-label: Kd

Please review the following examples before continuing.
C=CC(=O)Nc1ccc2c(c1)c(C)cn2-c1ccnc(Nc2cnn(C)c2)n1 [Example 79] | 0.1 to 100 nM
C=CC(=O)Nc1ccc2c(c1)c(C)cn2-c1nc(Nc2cnn(CCOC)c2)ncc1F [Example 163] | 0.1 to 100 nM
C=CC(=O)Nc1ccc2c(-c3ccnc(Nc4cn(CC)nc4C)n3)cn(C)c2c1 [Example 173] | 250 to 1000 nM
C=CC(=O)Nc1ccc2c(c1)c(C)cn2-c1nc(Nc2cccnc2F)ncc1F [Example 157] | 250 to 1000 nM
C=CC(=O)Nc1ccc2c(ccn2-c2nc(Nc3cnn(C)c3)ncc2Cl)c1C [Example 18] | 100 to 250 nM

For each of the compounds below, state Kd.
1. C=CC(=O)Nc1ccc2c(c1)c(C)cn2-c1nc(Nc2ccc(N3CCOCC3)cc2)ncc1C [Example 44]
2. Cc1cnc(Nc2cnn(CCO)c2)nc1-n1cc(C)c2cc(NC(=O)/C=C/CN(C)C)ccc21 [Example 122]

Response:
1. 0.1 to 100 nM
2. 0.1 to 100 nM

List Kd for every entry below, keeping the order given.
1. C=CC(=O)Nc1ccc2c(ccn2-c2nc(Nc3ccc(N4CCOCC4)cc3OCC)ncc2Cl)c1 [Example 11]
2. C=CC(=O)Nc1ccc2c(ccn2-c2nc(Nc3ccc(N4CCOCC4)cc3)ncc2Cl)c1 [Example 15]
3. C=CC(=O)Nc1ccc2c(c1)c(C)cn2-c1nc(Nc2ccc(OCCN3CCOCC3)cc2)ncc1C [Example 19]
4. C=CC(=O)Nc1cnc2c(c1)c(C)cn2-c1nc(Nc2ccn(CCO)n2)ncc1C [Example 119]

Response:
["> 1000 nM", "100 to 250 nM", "0.1 to 100 nM", "0.1 to 100 nM"]

====

target: FGFR2 (Homo sapiens); construct: made in house; host or cells: E. coli derived from BL21, infected with T7 phage; assay: Kinase binding assay (kinase-tagged T7 phage, affinity beads, qPCR readout), FGFR2; conditions: FGFR binding data
property-label: Kd

C=CC(=O)Nc1ccc2c(c1)c(C)cn2-c1nc(Nc2c(C)cccc2OCC)ncc1C#N | > 1000 nM
C=CC(=O)Nc1cnc2c(c1)c(C)cn2-c1ccnc(Nc2ccn(C)n2)n1 | 0.1 to 100 nM
C=CC(=O)Nc1ccc2c(c1)c(C)cn2-c1cc(Nc2cn(C)nc2C)nnc1C | > 1000 nM
C=CC(=O)Nc1ccc2c(c1)c(C)cn2-c1nc(Nc2cn(C)nc2C)ncc1C | 0.1 to 100 nM
C=CC(=O)Nc1ccc2c(c1)c(C)cn2-c1nc(Nc2cnn(C)c2)ncc1C | 0.1 to 100 nM

// input: 4 compounds below; output: Kd for each
1. C=CC(=O)Nc1ccc2c(c1)c(C)cn2-c1nc(Nc2ccc(N3CCOCC3)nc2)ncc1Cl
2. CC#CC(=O)Nc1ccc2c(c1)c(C)cn2-c1nc(Nc2ccnn2C)ncc1C
3. C=CC(=O)Nc1ccc2c(c1)c(C)cn2-c1nc(Nc2cn(C)cn2)ncc1C
4. C=CC(=O)Nc1cnc2c(c1)c(C)cn2-c1ccnc(Nc2ccnn2C)n1

Response:
0.1 to 100 nM
250 to 1000 nM
0.1 to 100 nM
0.1 to 100 nM

====

biological target: FGFR3 (Homo sapiens); construct: made in house; host or cells: E. coli derived from BL21, infected with T7 phage; experiment: Kinase binding assay (kinase-tagged T7 phage, affinity beads, qPCR readout), FGFR3; conditions: FGFR binding data
Sequence (P22607 23-806): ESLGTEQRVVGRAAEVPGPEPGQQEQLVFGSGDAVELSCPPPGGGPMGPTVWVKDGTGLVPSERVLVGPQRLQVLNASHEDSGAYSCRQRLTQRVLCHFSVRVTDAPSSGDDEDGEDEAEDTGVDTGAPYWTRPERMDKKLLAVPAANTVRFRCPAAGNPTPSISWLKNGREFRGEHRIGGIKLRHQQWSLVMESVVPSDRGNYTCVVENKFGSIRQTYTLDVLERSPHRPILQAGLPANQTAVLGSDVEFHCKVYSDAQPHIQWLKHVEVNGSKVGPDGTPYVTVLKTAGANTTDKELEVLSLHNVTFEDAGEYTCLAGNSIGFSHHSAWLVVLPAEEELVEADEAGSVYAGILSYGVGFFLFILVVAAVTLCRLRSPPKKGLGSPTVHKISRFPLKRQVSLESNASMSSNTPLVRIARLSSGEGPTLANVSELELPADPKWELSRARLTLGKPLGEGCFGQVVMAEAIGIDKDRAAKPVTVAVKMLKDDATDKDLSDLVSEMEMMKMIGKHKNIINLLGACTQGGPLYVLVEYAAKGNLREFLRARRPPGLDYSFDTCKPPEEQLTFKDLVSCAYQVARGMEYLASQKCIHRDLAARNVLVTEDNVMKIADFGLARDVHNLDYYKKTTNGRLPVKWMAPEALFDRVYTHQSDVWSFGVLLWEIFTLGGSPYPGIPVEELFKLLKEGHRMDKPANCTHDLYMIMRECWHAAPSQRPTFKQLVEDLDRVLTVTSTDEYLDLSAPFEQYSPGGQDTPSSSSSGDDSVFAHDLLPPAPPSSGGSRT
property-label: Kd

Reference set (5 entries):
C=CC(=O)Nc1ccc2c(-c3nc(Nc4cn(CC)nc4C)ncc3F)cn(C)c2c1 [Example 177] | 0.1 to 100 nM
C=CC(=O)Nc1ccc2c(c1)c(C)cn2-c1cc(Nc2cn(C)nc2C)ncc1C [Example 224] | 100 to 250 nM
C=CC(=O)Nc1cnc2c(c1)c(C)cn2-c1nc(Nc2ccn(C)n2)ncc1C [Example 97] | 0.1 to 100 nM
C=CC(=O)Nc1ccc2c(-c3nc(Nc4cn(C)nc4C)ncc3F)cn(C)c2c1 [Example 154] | 0.1 to 100 nM
C=CC(=O)Nc1cnc2c(c1)c(C)cn2-c1nc(Nc2ccn(C3COC3)n2)ncc1C [Example 113] | 0.1 to 100 nM

Moving on to another compound below.
Request: Enter recorded Kd with FGFR3 (Homo sapiens) for C=CC(=O)Nc1ccc2c(c1)c(C)cn2-c1cc(Nc2cn(C)nc2C)ncn1 [Example 222] here.
Response: > 1000 nM

====

target: FGFR2 (Homo sapiens, UniProt P21802); construct: made in house; host or cells: E. coli derived from BL21, infected with T7 phage; assay: Kinase binding assay (kinase-tagged T7 phage, affinity beads, qPCR readout), FGFR2; details: FGFR binding data
Sequence (P21802 22-821): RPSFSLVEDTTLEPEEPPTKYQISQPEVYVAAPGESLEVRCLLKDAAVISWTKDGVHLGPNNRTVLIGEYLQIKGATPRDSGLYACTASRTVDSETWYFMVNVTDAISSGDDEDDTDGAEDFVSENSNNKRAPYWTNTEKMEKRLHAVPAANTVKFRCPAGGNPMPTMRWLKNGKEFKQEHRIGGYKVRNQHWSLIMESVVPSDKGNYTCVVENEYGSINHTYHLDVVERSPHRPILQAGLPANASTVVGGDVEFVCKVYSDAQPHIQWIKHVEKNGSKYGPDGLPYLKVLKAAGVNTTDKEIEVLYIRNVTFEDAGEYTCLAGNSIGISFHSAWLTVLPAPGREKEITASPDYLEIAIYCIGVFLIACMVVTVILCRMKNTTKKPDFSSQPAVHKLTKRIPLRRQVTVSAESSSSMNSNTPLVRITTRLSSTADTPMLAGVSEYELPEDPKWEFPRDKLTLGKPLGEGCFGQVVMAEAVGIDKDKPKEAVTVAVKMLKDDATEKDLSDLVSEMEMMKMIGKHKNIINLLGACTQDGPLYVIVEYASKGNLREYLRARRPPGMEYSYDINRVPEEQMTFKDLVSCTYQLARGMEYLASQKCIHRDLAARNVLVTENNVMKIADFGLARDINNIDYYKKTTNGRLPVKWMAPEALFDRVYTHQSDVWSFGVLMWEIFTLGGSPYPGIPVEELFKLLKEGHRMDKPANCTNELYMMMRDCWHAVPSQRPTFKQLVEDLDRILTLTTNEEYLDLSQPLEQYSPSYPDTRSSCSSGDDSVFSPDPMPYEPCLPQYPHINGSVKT
Give Kd for every item shown.

C#CC(=O)Nc1ccc2c(c1)c(C)cn2-c1nc(Nc2ccnn2C)ncc1C | 0.1 to 100 nM

For each of the compounds below, state Kd.
1. C=CC(=O)Nc1ccc2c(ccn2-c2nc(Nc3ccc(OCCN4CCOCC4)cc3)ncc2Cl)c1C
2. C=CC(=O)Nc1ccc2c(c1)c(CC)cn2-c1nc(Nc2cnn(C)c2)ncc1C

Response:
0.1 to 100 nM
0.1 to 100 nM

====

Consider the following compounds; for each one, report its Kd.
molecular target: FGFR1 (Homo sapiens, UniProt P11362); construct: made in house; host or cells: E. coli derived from BL21, infected with T7 phage; assay: Kinase binding assay (kinase-tagged T7 phage, affinity beads, qPCR readout), FGFR1; details: FGFR binding data

C=CC(=O)Nc1ccc2c(c1)c(C)cn2-c1nc(Nc2ccc(CN3CCN(C)CC3)c(F)c2)ncc1Cl | 0.1 to 100 nM
C=CC(=O)Nc1ccc2c(-c3nc(Nc4ccc(N5CCOCC5)cc4)ncc3C)cn(C)c2c1 | 0.1 to 100 nM

Request: Please indicate Kd recorded for C=CC(=O)Nc1ccc2c(ccn2-c2nc(Nc3cccc(OCCN4CCOCC4)c3)ncc2Cl)c1
Response: 250 to 1000 nM
